Documented AC50 across a set of molecules
# system.under.test: UniProtKB P33261
# Sequence (P33261 whole entry): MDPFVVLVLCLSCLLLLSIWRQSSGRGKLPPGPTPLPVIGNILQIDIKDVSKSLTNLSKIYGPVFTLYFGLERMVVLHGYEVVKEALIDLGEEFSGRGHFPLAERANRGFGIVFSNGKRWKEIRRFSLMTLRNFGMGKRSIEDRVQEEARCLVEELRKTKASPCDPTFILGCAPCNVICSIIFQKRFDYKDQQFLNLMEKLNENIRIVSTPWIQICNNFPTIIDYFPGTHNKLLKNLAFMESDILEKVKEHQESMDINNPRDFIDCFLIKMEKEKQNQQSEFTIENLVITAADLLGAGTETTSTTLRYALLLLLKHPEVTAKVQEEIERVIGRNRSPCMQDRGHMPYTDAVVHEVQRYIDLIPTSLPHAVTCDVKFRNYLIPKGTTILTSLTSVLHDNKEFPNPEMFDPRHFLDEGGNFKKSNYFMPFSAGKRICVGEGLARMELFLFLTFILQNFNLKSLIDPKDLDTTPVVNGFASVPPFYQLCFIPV
# protocol.description: Cytochrome panel assay with activity outcomes. Panel member name: p450-cyp2c19 Compounds with AC50 equal or less than 10 uM are considered active
# Type: functional
# measurement.conditions: read-out: AC50
Square brackets hold non-standard residues; d marks the D form. Peptide text beside a SMILES is read from it. * marks the point of attachment. ξ: configuration not given here. Cbz = O=C(OCc1ccccc1)*; OBn = c1ccc(CO*)cc1; ξP = O=C(O)C1CCCN1
property.measured: AC50

- molecule: "C=CCSc1nnc2c(n1)OC(c1c(C)[nH]n(-c3ccccc3)c1=O)Nc1ccccc1-2 (configuration not stated)"
  system.under.test: "UniProtKB P33261"
  data.value: "8.91 µM (inconclusive)"
- molecule: "O=C(CNC(=O)OCc1ccccc1)NCC(=O)N1CCCC1C(=O)OCc1ccccc1 (stereo not drawn) (Cbz-Gly-Gly-[ξP]-OBn)"
  system.under.test: "UniProtKB P33261"
  data.value: "0.0355 µM (inconclusive)"
- molecule: "Cc1ccc(N/N=C2/C(=N)N(c3ccccc3)NC2=O)cc1"
  system.under.test: "UniProtKB P33261"
  data.value: "5.01 µM (inconclusive)"
- molecule: "FC(F)(F)c1nc2ccccc2nc1N/N=C\\c1ccccc1"
  system.under.test: "UniProtKB P33261"
  data.value: "39.8 µM (inconclusive)"
- molecule: "Cc1nc(-c2cccc(NC(=O)c3cc4cc(Br)ccc4oc3=O)c2)cs1"
  system.under.test: "UniProtKB P33261"
  data.value: "20 µM (inconclusive)"
- molecule: "Cc1ccc2occ(/C=C/C(=O)O)c(=O)c2c1"
  system.under.test: "UniProtKB P33261"
  data.value: "28.2 µM (inconclusive)"
- molecule: "c1ccc(N2CCCC3(CCNCC3)C2)cc1"
  system.under.test: "UniProtKB P33261"
  data.value: "15.8 µM (inconclusive)"
- molecule: "CCC(=O)N1CCn2c1nc1ccccc12"
  system.under.test: "UniProtKB P33261"
  data.value: "28.2 µM (inconclusive)"
- molecule: "O=C(NNS(=O)(=O)c1ccc(Cl)cc1)NC1CCCCC1"
  system.under.test: "UniProtKB P33261"
  data.value: "10 µM (inconclusive)"
- molecule: "COCCNC(=O)CCn1c(=O)oc2ccccc21"
  system.under.test: "UniProtKB P33261"
  data.value: "1.41 µM (inconclusive)"
- molecule: "O=C(OCn1nnc2ccccc2c1=O)c1cccnc1"
  system.under.test: "UniProtKB P33261"
  data.value: "25.1 µM (inconclusive)"
- molecule: "O=C1[C@H]2[C@H]3[C@H](O)[C@H](O)C/C(=N/OCc4ccccc4)[C@@H]3CC[C@@H]2C(=O)N1Cc1ccc2c(c1)OCO2"
  system.under.test: "UniProtKB P33261"
  data.value: "3.98 µM (inconclusive)"

// data source = ChEMBL document CHEMBL1201862
